Where do the numbers come from? From patent US20110230472A1.

target: PI-3 kinase γ (Homo sapiens); experiment: PI3Kγ inhibitory activity, PI3-kinase HTRF assay (inhibition ratio); format: biochemical; conditions: 0.5 h; PI3Kγ, compound at 50 μM
inhibition at 50 µM overview
Report the figure in % without appending any unit label.

substance_smiles=CNC(=O)Nc1cc2n(n1)CCN(c1cccc(C(=O)OC)c1)C2 measured_result=75

Form field - read-out: inhibition at 50 µM; system: PI-3 kinase γ (Homo sapiens); submitted item: `CNC(=O)Nc1cc2n(n1)CCN2c1cc(Br)cc(C(=O)N2CCN(C(=O)OC(C)(C)C)CC2)c1`
79

Please do the same for `O=C(Nc1cc2n(n1)CCN2c1cccc(Cl)c1)c1ccc2nccn2c1` as well.
84

Next record, please: `CNC(=O)Nc1nc2c(s1)CN(c1nccc(OC)n1)CC2`
92

Here is the next compound: `CCOC(=O)CNC(=O)Nc1cc2n(n1)CCN2c1ccccc1`
81

Also need `CNC(=O)Nc1cc2n(n1)CCN2c1cc(Br)cc(C(=O)N(C)C)c1` , thanks.
93

What about this compound? `COc1cc(N2CCc3nc(NC(=O)[C@@H](O)c4ccccc4)sc3C2)nc(OC)n1`
92

====

target: PI-3 kinase γ (Homo sapiens); assay: PI3Kγ inhibitory activity, PI3-kinase HTRF assay (inhibition ratio); type: biochemical; conditions: 0.5 h; compound at 10 μmol/L
ATTRIBUTE MEASURED: inhibition at 10 µM

Answered cases to consult:
substance_smiles=CCCOc1ccc(C(=O)Nc2cc3n(n2)CCN3c2ccc3c(c2)CCN(C)C3=O)cc1 measured_result=94%
substance_smiles=CN1CCc2cc(N3CCn4nc(NC(=O)c5ccc(S(C)(=O)=O)cc5)cc43)ccc2C1=O measured_result=92%
substance_smiles=CC(C)CCOc1ccc(C(=O)Nc2cc3n(n2)CCN3c2ccc3c(c2)CCN(C)C3=O)cc1 measured_result=84%

// lookup inhibition at 10 µM for `CN1CCc2cc(N3CCn4nc(NC(=O)c5cccc(OC(C)(C)C(=O)OC(C)(C)C)c5)cc43)ccc2C1=O`
85%

And `CC(=O)Nc1cc2n(n1)CCN2c1ccc2c(c1)CCNC2=O` ?
≥ 95%

And then `CC(=O)Nc1cc2n(n1)CCN2c1ccc2c(c1)CCCN2.Cl.Cl` , what is it?
≥ 95%

Lookup `COc1cc(N2CCc3nc(NC(=O)Nc4cccc(C(=O)OC(C)(C)C)c4)sc3C2)nc(OC)n1`
95%

What do you have for `CN1CCc2cc(N3CCn4nc(NC(=O)c5csc(Br)c5)cc43)ccc2C1=O` ?
76%

====

molecular target: CYP2C19 (Homo sapiens); construct: enzyme: pooled human liver microsome 0.2 mg protein/mL; from tissue; host or cells: pooled human liver microsome; assay: CYP inhibition test, pooled human liver microsome, CYP2C19; assay type: in vitro ADME; details: 4′-hydroxylation of mephenyloin
Sequence (P33261 whole entry): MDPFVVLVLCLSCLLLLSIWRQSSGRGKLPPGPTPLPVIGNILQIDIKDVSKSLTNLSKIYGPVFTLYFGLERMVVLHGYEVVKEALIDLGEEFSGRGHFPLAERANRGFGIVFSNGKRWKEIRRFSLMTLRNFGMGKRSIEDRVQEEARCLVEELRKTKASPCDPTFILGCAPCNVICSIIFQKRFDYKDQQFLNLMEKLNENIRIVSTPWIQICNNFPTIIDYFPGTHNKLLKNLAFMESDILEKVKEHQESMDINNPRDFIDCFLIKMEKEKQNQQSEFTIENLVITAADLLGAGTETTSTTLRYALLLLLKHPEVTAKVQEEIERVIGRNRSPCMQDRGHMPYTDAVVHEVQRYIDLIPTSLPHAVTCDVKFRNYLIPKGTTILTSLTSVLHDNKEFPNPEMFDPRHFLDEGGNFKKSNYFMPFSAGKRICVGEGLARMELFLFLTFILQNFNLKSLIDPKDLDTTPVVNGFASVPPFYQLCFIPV
ATTRIBUTE MEASURED: IC50

# example entries with known answers
substance_smiles=CNC(=O)Nc1cc2n(n1)CCN2c1ccc(S(C)(=O)=O)cc1 target_entity="CYP2C19 (Homo sapiens)" measured_result="> 20 µM"
substance_smiles=COc1nc(OC)nc(N2CCc3nc(NC(C)=O)sc3C2)n1 target_entity="CYP2C19 (Homo sapiens)" measured_result="> 20 µM"

Then there is this molecule:
Param readout= IC50; system= CYP2C19 (Homo sapiens); entry= `COc1cc(N2CCc3nc(NC(=O)NCc4cc(=O)[nH]o4)sc3C2)nc(OC)n1` ; returns value.
> 20 µM

====

target: PI-3 kinase γ (Homo sapiens, UniProt P48736); assay: PI3Kγ inhibitory activity, PI3-kinase HTRF assay (inhibition ratio); assay type: biochemical; settings: 0.5 h; PI3Kγ, compound at 50 μM
Sequence (P48736 whole entry): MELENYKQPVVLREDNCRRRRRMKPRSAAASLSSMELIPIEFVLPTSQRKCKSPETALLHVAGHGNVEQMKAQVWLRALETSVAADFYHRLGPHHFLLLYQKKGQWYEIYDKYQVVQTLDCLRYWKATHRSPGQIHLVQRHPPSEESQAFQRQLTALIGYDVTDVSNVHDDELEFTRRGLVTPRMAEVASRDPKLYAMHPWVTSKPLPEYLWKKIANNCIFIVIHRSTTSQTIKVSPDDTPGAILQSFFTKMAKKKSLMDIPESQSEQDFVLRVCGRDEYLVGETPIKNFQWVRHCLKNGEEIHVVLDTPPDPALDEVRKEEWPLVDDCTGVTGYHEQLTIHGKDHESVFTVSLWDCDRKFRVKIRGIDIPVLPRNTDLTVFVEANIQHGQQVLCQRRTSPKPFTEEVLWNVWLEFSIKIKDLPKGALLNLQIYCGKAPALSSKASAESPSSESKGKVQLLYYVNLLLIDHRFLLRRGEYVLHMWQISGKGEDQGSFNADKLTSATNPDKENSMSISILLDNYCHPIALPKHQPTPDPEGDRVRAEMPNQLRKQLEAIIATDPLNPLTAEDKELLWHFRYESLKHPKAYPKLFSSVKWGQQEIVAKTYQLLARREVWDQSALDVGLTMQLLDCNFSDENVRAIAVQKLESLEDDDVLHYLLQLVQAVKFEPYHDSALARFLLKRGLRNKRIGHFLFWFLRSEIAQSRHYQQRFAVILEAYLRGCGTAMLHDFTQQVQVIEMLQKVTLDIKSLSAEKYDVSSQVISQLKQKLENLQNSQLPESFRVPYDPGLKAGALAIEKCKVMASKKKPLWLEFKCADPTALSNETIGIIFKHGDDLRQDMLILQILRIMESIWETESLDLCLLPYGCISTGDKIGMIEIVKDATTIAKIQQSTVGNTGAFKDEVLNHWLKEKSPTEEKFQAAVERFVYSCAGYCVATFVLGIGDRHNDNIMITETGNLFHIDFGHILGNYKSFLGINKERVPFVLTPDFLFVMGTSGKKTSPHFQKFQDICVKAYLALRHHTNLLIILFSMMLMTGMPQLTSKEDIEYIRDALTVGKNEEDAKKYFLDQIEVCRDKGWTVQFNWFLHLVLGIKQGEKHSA
ATTRIBUTE MEASURED: inhibition at 50 µM

Return reported inhibition at 50 µM; argument: `O=C(Nc1cc2n(n1)CCN2c1cccc(Cl)c1)c1cccc(O)c1`
91%

Repeat for the following compound: `O=C(Nc1cc2n(n1)CCN2c1ccccc1)c1ccccc1`
≥ 95%

Moving on to `NC(=O)CCC(=O)Nc1cc2n(n1)CCN2c1cccc(Cl)c1`
≥ 95%

====

molecular target: PI-3 kinase γ (Homo sapiens, UniProt P48736); test: PI3Kγ inhibitory activity, PI3-kinase HTRF assay (inhibition ratio); type: biochemical; settings: 0.5 h; compound at 10 μmol/L
ATTRIBUTE MEASURED: inhibition at 10 µM

For the molecule `CN1CCc2cc(N3CCn4nc(NC(=O)c5cnc(NC(=O)OC(C)(C)C)s5)cc43)ccc2C1=O` , what inhibition at 10 µM is on record?
≥ 95%

Would you mind doing `CC(C)CCNC(=O)CCNC(=O)Nc1cc2n(n1)CCN2c1ccc2c(c1)CCN(C)C2=O` as well?
94%

====

biological target: PI-3 kinase γ (Homo sapiens); assay: PI3Kγ inhibitory activity, PI3-kinase HTRF assay (inhibition ratio); assay type: biochemical; settings: 0.5 h; compound at 10 μmol/L
ATTRIBUTE MEASURED: inhibition at 10 µM (%)
# unit: % | format: bare number

substance_smiles=CN1CCc2cc(N3CCn4nc(NC(=O)c5ccccc5NC(=O)OC(C)(C)C)cc43)ccc2C1=O attribute_measured="inhibition at 10 µM" u=% measured_result=91

--- query ---
What value of measured inhibition at 10 µM is listed for `COc1cc(N2CCc3nc(NC(=O)Nc4ccc(C(C)(C)C)cc4)sc3C2)nc(OC)n1` ?
90

====

molecular target: PI-3 kinase γ (Homo sapiens); assay: PI3Kγ inhibitory activity, PI3-kinase HTRF assay (inhibition ratio); assay type: biochemical; conditions: 0.5 h; PI3Kγ, compound at 50 μM
ATTRIBUTE MEASURED: inhibition at 50 µM (%)
Write the value in % as a bare number.

compound="O=C(O)CC(=O)Nc1cc2n(n1)CCN2c1cccc(Cl)c1 [Compound I-235]" attribute_measured="inhibition at 50 µM" u=% measured_result=89
compound="CC(=O)N1CCC(C(=O)Nc2cc3n(n2)CCN3c2cccc(Cl)c2)CC1 [Compound I-236]" attribute_measured="inhibition at 50 µM" u=% measured_result=88
compound="CNC(=O)Nc1nc2c(s1)CN(c1nccc(C(F)(F)F)n1)CC2 [Compound I-95]" attribute_measured="inhibition at 50 µM" u=% measured_result=93
compound="CNC(=O)Nc1cc2n(n1)CCN2c1cccc(-c2csc(NC(=O)OC(C)(C)C)n2)c1 [Compound I-188]" attribute_measured="inhibition at 50 µM" u=% measured_result=91
compound="CNC(=O)Nc1nc2c(s1)CN(c1cc(Oc3ccccc3)nc(OCCCOCc3ccccc3)n1)CC2 [Compound I-232]" attribute_measured="inhibition at 50 µM" u=% measured_result=76

What does the data say about its inhibition at 50 µM? Entry: CNC(=O)Nc1cc2n(n1)CCN2c1cc(CCc2ccccc2)cc(C(=O)N2CCOCC2)c1 [Compound I-260]
93

What would you report for CNC(=O)Nc1cc2n(n1)CCN2c1ccc2c(c1)CCNC2=O [Compound I-194] ?
95

What do you get for CC(C)(C)OC(=O)N1CCc2nc(NC(=O)Nc3cccc(Cl)c3)sc2C1 [Compound I-117] ?
76

// same read-out, input: CC(=O)Nc1nc2c(s1)CN(c1ccccc1)CC2 [Compound I-230]
81

What do we get for CC(=O)NCCC(=O)Nc1cc2n(n1)CCN2c1cccc(Cl)c1 [Compound I-244] ?
87

Next compound up: CNC(=O)Nc1cc2n(n1)CCN2C(=O)c1nc2ccccc2s1 [Compound I-40]
73

What do you have for CC(=O)Nc1cc2n(C(=O)c3ccccc3)ccn2n1 [Compound I-6] ?
90

Further, for COc1cc(N2CCc3nc(NC(=O)Nc4ccccc4)sc3C2)nc(OC)n1 [Compound I-203] ?
95

Same read-out for CNC(=O)Nc1cc2n(n1)CCN2c1cccc(CC(=O)O)c1 [Compound I-153] ?
74

Again, but for CCOC(=O)c1ccc(N2CCn3nc(NC(=O)NC)cc32)s1 [Compound I-211]
89

====

Target: PI-3 kinase γ (Homo sapiens)
Assay: PI3Kγ inhibitory activity, PI3-kinase HTRF assay (inhibition ratio)
Assay type: biochemical
Conditions: 0.5 h; PI3Kγ, compound at 50 μM
Protocol: The PI3Kγ inhibitory activity of a compound was evaluated using PI3-kinase HTRF™ assay (Millipore) according to the following procedure: […] 5 μL of a detection reagent containing a europium-labeled anti-GST antibody, the GST-tagged PH domain, and allophycocyanin-labeled streptavidin was added thereto. After 18 hours, HTRF (excitation wavelength: 330 nm, measured wavelengths: 620 nm and 665 nm) was measured. […]
ATTRIBUTE MEASURED: inhibition at 50 µM

Would you please look over these solved cases?
substance_smiles=CNC(=O)Nc1cc2n(n1)CCN2c1cccc(CC(=O)OC(C)(C)C)c1 measured_result="≥ 95%"
substance_smiles=CNC(=O)Nc1nc2c(s1)CN(c1cc(N)nc(Cl)n1)CC2 measured_result=76%
substance_smiles=CNC(=O)Nc1cc2n(n1)CCN2c1cccc(-c2csc(N)n2)c1 measured_result="≥ 95%"
substance_smiles=CNC(=O)Nc1cc2n(n1)CCN2c1cc(C(=O)N2CCOCC2)cc(C2CCCCC2)c1 measured_result="≥ 95%"
substance_smiles=CNC(=O)Nc1cc2n(n1)CCN2c1cc(Br)cc(C(=O)NC(C)(C)C)c1 measured_result="≥ 95%"

# next compound below
What does the data say about its inhibition at 50 µM? Entry: `CNC(=O)Nc1nc2c(s1)CN(C(=O)OC(C)(C)C)CC2`
92%
